Hey, just so you know, these numbers are from ChEMBL document CHEMBL1124254.

species on record: Cavia porcellus; assay: Cardiotonic activity was measured in guinea pig atria at 54 uM concentration; Ranking; type: functional
reportedEndpoint: Activity

Solved entries (count: 5):
molecule: C/C(=C\C[C@@H](C)/C=C1\CN2CCC[C@H]2[C@@](C)(O)C1)[C@H](O)[C@H](C)O
reportedEndpoint: Activity
readoutValue: Ranking
--
molecule: CC[C@H](O)/C(C)=C/C[C@@H](C)/C=C1\CN2CCC[C@H]2[C@@](C)(O)C1
reportedEndpoint: Activity
readoutValue: Ranking
--
molecule: CC[C@@H](O)/C(C)=C/C[C@@H](C)/C=C1\CN2CCC[C@H]2[C@@](C)(O)[C@@H]1O
reportedEndpoint: Activity
readoutValue: Ranking
--
molecule: C/C(=C\C[C@@H](C)/C=C1\CN2CCC[C@H]2[C@@](C)(O)[C@H]1O)[C@@H](O)[C@@H](C)O
reportedEndpoint: Activity
readoutValue: Ranking
--
molecule: CCC[C@@H](C)/C=C1\CN2CCC[C@H]2[C@@](C)(O)[C@@H]1O
reportedEndpoint: Activity
readoutValue: Ranking

Query: Which Activity value belongs to CCC(O)/C(C)=C/C[C@@H](C)/C=C1\CN2CCC[C@H]2[C@@](C)(O)C1 (some centres undefined) ?
Result: Ranking

Query: Same thing, different molecule: CC(O)CC[C@@H](C)/C=C1\CN2CCC[C@H]2[C@@](C)(O)C1 (some centres undefined)
Result: Ranking

Query: Another: `C/C(=C\C[C@@H](C)/C=C1\CN2CCC[C@H]2[C@@](C)(O)C1)[C@@H](O)[C@H](C)O`
Result: Ranking

Query: `C/C(=C\C[C@H](C)/C=C1\CN2CCC[C@H]2[C@@](C)(O)C1)[C@@H](O)[C@@H](C)O` ?
Result: Ranking
